Listed below: koff values for each entry.
# subject-of-test: T1, human CTLA-4.ECD-6×His (human, UniProt P16410 36-161)
# T1 construct: extracellular domain; also called WBP316.hCTLA-4.ECD-6×His; hCTLA4-His (WT)
# T1 sequence: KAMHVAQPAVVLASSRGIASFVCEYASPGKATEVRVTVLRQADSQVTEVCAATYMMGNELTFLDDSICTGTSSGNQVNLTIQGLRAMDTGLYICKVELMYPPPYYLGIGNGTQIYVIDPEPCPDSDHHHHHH
# assay: SPR, antibody captured on anti-human Fc, CTLA-4.ECD-6×His as analyte, 1:1 fit
experimental-endpoint: koff (s⁻¹)

[[record]]
binder = "W3162-1.154.8 xAb.IgG1 (antibody, V domains shown, Chimeric: rat variable regions fused with constant region of human antibody (label xAb.IgG1)) VH: EVQLQQSGPEAGRPGSSVKISCKASGYTFTNYFMNWVKQSPGQGLEWIGRVDPENGRADYAEKFKKKATLTADTTSNTAYIHLSSLTSEDTATYFCARRAMDNYGFAYWGQGTLVTVSS VL: EIMLTQSPTIMAASLGEKITITCSANSSLSYMYWFQQKSGASPKLWVHGTSNLASGVPDRFSGSGSGTSYYLTINTMEAEDAATYFCHHWSNTQWTFGGGTKLELK"
units_of_measure = "s⁻¹"
measured_number = 0.000125

[[record]]
binder = "W3162_1.145.10-z7-uAb.IgG1K (antibody, V domains shown, Humanized; label says IgG1K; also called W145) VH: EVQLVESGGGLVQPGGSLRLSCAASDLTFSNYDMAWVRQAPGKGLEWVASISPSGGNTYYRDSVKGRFTISRDNAKNSLYLQMNSLRAEDTAVYYCARHLWFAYWGQGTLVTVSS VL: DIQMTQSPSSLSASVGDRVTITCQASQDIGSNLIWFQQKPGKAPKPMIYYATHLADGVPSRFSGSRSGTDYTLTISSLQPEDFATYYCLQYKQYPRTFGGGTKVEIK"
units_of_measure = "s⁻¹"
measured_number = 0.0135

[[record]]
binder = "W3162-1.146.19-z12-uAb.IgG1K (antibody, V domains shown, Humanized; label says IgG1K) VH: QVQLQESGPGLVKPSETLSLTCSVTYHTITSGYDWTWIRKPPGKGMEWIGYISYSGNTNYNPSLKSRVTISRDTSKNQFFLKLSSVTAADTAVYYCASMMVPHYYVMDAWGQGTLVTVSS VL: DIVMTQTPLSLSVTPGQPASISCRSSQSLLNSDGNTYLYWYLQKPGQSPQLLIYLVSKLGSGVPNRFSGSGSGTDFTLKISRVEAEDVGVYYCVQGTHDPWTFGGGTKVEIK"
units_of_measure = "s⁻¹"
measured_number = "9.82e-05"

